pIC50 values for the compounds below.
# Measurement Target: Phosphatidylinositol 4,5-bisphosphate 3-kinase catalytic subunit beta isoform (Homo sapiens)
# Sequence (P42338 whole entry, canonical isoform): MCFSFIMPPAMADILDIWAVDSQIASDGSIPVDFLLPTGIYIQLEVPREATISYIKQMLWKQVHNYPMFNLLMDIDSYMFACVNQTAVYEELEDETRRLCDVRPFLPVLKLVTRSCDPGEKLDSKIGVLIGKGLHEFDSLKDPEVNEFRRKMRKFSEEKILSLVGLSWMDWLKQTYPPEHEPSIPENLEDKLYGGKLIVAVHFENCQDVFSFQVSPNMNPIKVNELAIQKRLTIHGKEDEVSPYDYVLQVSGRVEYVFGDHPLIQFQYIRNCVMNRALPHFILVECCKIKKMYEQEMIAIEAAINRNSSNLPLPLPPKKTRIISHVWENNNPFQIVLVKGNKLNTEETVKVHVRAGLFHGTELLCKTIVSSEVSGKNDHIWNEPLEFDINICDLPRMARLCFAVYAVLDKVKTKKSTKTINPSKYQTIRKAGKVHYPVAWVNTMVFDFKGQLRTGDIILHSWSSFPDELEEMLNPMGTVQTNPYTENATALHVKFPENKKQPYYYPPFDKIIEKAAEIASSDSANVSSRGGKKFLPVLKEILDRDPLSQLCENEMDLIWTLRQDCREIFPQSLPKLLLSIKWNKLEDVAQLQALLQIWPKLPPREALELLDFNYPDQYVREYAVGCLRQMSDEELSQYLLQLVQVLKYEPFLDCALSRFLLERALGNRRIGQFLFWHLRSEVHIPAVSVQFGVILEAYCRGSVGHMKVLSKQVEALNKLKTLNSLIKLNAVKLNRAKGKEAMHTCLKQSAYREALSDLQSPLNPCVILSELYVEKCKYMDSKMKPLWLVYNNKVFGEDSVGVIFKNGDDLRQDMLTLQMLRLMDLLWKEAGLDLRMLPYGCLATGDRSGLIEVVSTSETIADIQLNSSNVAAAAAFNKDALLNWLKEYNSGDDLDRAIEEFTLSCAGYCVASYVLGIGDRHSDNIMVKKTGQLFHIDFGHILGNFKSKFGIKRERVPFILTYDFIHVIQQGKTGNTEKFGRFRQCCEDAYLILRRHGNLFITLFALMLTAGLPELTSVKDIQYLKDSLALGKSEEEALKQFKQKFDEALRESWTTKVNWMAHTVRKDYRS
# Test Description: Inhibition of human PI3Kbeta after 15 mins
pIC50: −log10 of the molar value.

Compound: CC1Cc2c(Br)cccc2N1C(=O)Cc1nc(N2CCOCC2)sc1C(N)=O (single isomer, unassigned; (-))
pIC50: 7.89
//
Compound: CC1CN(C(=O)Cc2nc(N3CCOCC3)sc2C(N)=O)c2ccccc21 (racemic)
pIC50: 6.89
//
Compound: NC(=O)c1sc(N2CCOCC2)nc1CC(=O)N1CCc2ccccc21
pIC50: 7.15
//
Compound: NC(=O)c1sc(N2CCOCC2)nc1CC(=O)N1CCc2cc(Cl)ccc21
pIC50: 6.78
//
Compound: CC1Cc2c(Cl)cccc2N1C(=O)Cc1nc(N2CCOCC2)sc1C(=O)O (stereo not given)
pIC50: 8.10
